These measurements were taken from paper PMC6061170.

Exercise: for every item that follows, state its recorded IC50.
target-of-assay: dopamine D2 receptors (Rattus norvegicus)
Sequence (P61169 1-415 isoform P61169-2): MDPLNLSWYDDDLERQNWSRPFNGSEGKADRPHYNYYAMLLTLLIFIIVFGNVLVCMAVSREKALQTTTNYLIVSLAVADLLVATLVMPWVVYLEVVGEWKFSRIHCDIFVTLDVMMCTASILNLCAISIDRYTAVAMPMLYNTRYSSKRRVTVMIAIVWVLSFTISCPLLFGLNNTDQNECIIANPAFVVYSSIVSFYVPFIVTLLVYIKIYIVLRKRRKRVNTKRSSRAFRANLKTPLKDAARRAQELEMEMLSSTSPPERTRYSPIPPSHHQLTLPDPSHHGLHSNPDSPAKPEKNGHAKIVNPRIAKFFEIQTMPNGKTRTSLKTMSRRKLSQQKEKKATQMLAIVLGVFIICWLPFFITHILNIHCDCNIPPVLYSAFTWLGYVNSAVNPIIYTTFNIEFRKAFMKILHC
assay-comment: Radioligand binding assay, D2 receptors
details: rat brain tissues; read-out: D2 IC50 [nM] ± SEM
Express the result in nM but write the number alone.

Query: Fill in IC50 for Cc1ccccc1CN1C2CCC1CC(NC(=O)c1ccc3ncccc3c1)C2 (stereo not drawn) [Compound 12c] tested with dopamine D2 receptors (Rattus norvegicus).
Response: 1270

Query: Identify measured IC50 obtained with dopamine D2 receptors (Rattus norvegicus) for Cc1cccc(CN2C3CCC2CC(NC(=O)c2ccc4ccccc4n2)C3)c1 (stereo not drawn) [Compound 12e] .
Response: 260

Query: # assay system dopamine D2 receptors (Rattus norvegicus): give IC50 of O=C(NC1CC2CCC(C1)N2Cc1cccnc1)c1ccc2ccccc2n1 (stereo not drawn) [Compound 12p]
Response: 5440

Query: Report value: IC50, system: dopamine D2 receptors (Rattus norvegicus), compound: Cc1cccc(CN2C3CCC2CC(NC(=O)c2ccc4ncccc4c2)C3)c1 (stereo not drawn) [Compound 12g]
Response: 1370

Query: // fetch IC50; item: Cc1ccc(CN2C3CCC2CC(NC(=O)c2cnc4ccccc4c2)C3)cc1 (stereo not drawn) [Compound 12j] ; system: dopamine D2 receptors (Rattus norvegicus)
Response: 227

Query: Enter recorded IC50 with dopamine D2 receptors (Rattus norvegicus) for COc1cc(C(=O)NC2CC3CCC(C2)N3Cc2cccc(C)c2)nc2ccccc12 (stereo not drawn) [Compound 12h] here.
Response: 2510

Query: Write IC50 of Cc1ccc(CN2C3CCC2CC(NC(=O)c2ccc4ncccc4c2)C3)cc1 (stereo not drawn) [Compound 12k] ; system used: dopamine D2 receptors (Rattus norvegicus)
Response: 172

###

Give measured Ki for each item. Keep answers brief.
target-of-assay: dopamine D2 receptors (Rattus norvegicus)
assay-comment: Radioligand binding assay, D2 receptors

Query: Would you please give the reported Ki of O=C(NC1CC2CCC(C1)N2Cc1ccccn1)c1ccc2ncccc2c1 (centres unmarked) [Compound 12n] with dopamine D2 receptors (Rattus norvegicus)?
Response: > 10000 nM

Query: Please report Ki with dopamine D2 receptors (Rattus norvegicus) for item O=C(NC1CC2CCC(C1)N2Cc1cccnc1)c1cnc2ccccc2c1 (centres unmarked) [Compound 12q] .
Response: > 10000 nM

Query: Fill in: Ki on dopamine D2 receptors (Rattus norvegicus), entry Cc1ccc(CN2C3CCC2CC(NC(=O)c2cnc4ccccc4c2)C3)cc1 (centres unmarked) [Compound 12j]
Response: 45.3 nM

Query: Recall the reported Ki of Cc1cccc(CN2C3CCC2CC(NC(=O)c2ccc4ccccc4n2)C3)c1 (centres unmarked) [Compound 12e] when tested on dopamine D2 receptors (Rattus norvegicus).
Response: 52.2 nM

Query: Print dopamine D2 receptors (Rattus norvegicus) Ki for Nc1ccccc1CN1C2CCC1CC(NC(=O)c1ccc3ccccc3c1)C2 (centres unmarked) [Compound 19a] .
Response: 41.5 nM

Query: State measured Ki of the molecule O=C(NC1CC2CCC(C1)N2Cc1cccnc1)c1ccc2ncccc2c1 (centres unmarked) [Compound 12r] with dopamine D2 receptors (Rattus norvegicus).
Response: > 10000 nM

Query: Report measured Ki on dopamine D2 receptors (Rattus norvegicus); entry: O=C(NC1CC2CCC(C1)N2Cc1ccncc1)c1cnc2ccccc2c1 (centres unmarked) [Compound 12u]
Response: > 10000 nM

Query: Specify the recorded Ki for O=C(NC1CC2CCC(C1)N2Cc1ccncc1)c1ccc2ncccc2c1 (centres unmarked) [Compound 12v] , system: dopamine D2 receptors (Rattus norvegicus).
Response: > 10000 nM

Query: Please respond with reported Ki (system dopamine D2 receptors (Rattus norvegicus)) for Cc1ccc(CN2C3CCC2CC(NC(=O)c2ccc4ccccc4n2)C3)cc1 (centres unmarked) [Compound 12i] .
Response: 7.4 nM

Query: # assay system dopamine D2 receptors (Rattus norvegicus): give Ki of Cc1ccc(CN2C3CCC2CC(NC(=O)c2ccc4ncccc4c2)C3)cc1 (centres unmarked) [Compound 12k]
Response: 34.2 nM

Query: Report Ki from dopamine D2 receptors (Rattus norvegicus) testing of Cc1ccccc1CN1C2CCC1CC(NC(=O)c1ccc3ccccc3n1)C2 (centres unmarked) [Compound 12a]
Response: 52 nM

###

target-of-assay: serotonin 5-HT1A receptors (Rattus norvegicus)
Construct: from tissue; host or cells: rat brain tissues
assay-comment: Radioligand binding assay, 5-HT1A receptors
Classify: Y when Ki is strictly less than 40 nM; N when Ki is not.

Query: Ki strictly < 40 nM for this molecule? Cc1cccc(CN2C3CCC2CC(NC(=O)c2cnc4ccccc4c2)C3)c1 (stereo not shown) [Compound 12f]
Response: N

Query: A record lists O=C(NC1CC2CCC(C1)N2Cc1ccccn1)c1ccc2ncccc2c1 (stereo not shown) [Compound 12n] . Is its Ki below 40 nM?
Response: N

Query: Could you please tell me whether Ki recorded for Cc1cccc(CN2C3CCC2CC(NC(=O)c2ccc4ccccc4n2)C3)c1 (stereo not shown) [Compound 12e] is less than 40 nM?
Response: N

Query: Consider COc1cc(C(=O)NC2CC3CCC(C2)N3Cc2ccccc2C)nc2ccccc12 (stereo not shown) [Compound 12d] . Does its Ki lie strictly below 40 nM?
Response: Y

Query: Ki strictly < 40 nM for this molecule? Nc1ccccc1CN1C2CCC1CC(NC(=O)c1ccc3ccccc3c1)C2 (stereo not shown) [Compound 19a]
Response: N

Query: is_below(Ki, 40 nM) for Cc1ccccc1CN1C2CCC1CC(NC(=O)c1cnc3ccccc3c1)C2 (stereo not shown) [Compound 12b] ?
Response: N

Query: Quick check: does O=C(NC1CC2CCC(C1)N2Cc1cccnc1)c1ccc2ncccc2c1 (stereo not shown) [Compound 12r] have Ki under 40 nM?
Response: N

Query: Consider Cc1ccc(CN2C3CCC2CC(NC(=O)c2ccc4ccccc4n2)C3)cc1 (stereo not shown) [Compound 12i] . Does its Ki lie strictly below 40 nM?
Response: N

Query: Item Cc1ccccc1CN1C2CCC1CC(NC(=O)c1ccc3ccccc3n1)C2 (stereo not shown) [Compound 12a] : Ki beneath 40 nM, strictly?
Response: N

Query: Hi there! Is Ki for O=C(NC1CC2CCC(C1)N2Cc1ccncc1)c1ccc2ncccc2c1 (stereo not shown) [Compound 12v] below 40 nM, do you know?
Response: N

Query: Please let me know if O=C(NC1CC2CCC(C1)N2Cc1ccncc1)c1cnc2ccccc2c1 (stereo not shown) [Compound 12u] shows Ki below 40 nM.
Response: N

Query: # check: Ki < 40 nM for O=C(NC1CC2CCC(C1)N2Cc1cccnc1)c1cnc2ccccc2c1 (stereo not shown) [Compound 12q]
Response: N

Query: Regarding COc1cc(C(=O)NC2CC3CCC(C2)N3Cc2cccc(C)c2)nc2ccccc12 (stereo not shown) [Compound 12h] , kindly confirm whether its Ki is beneath 40 nM.
Response: Y

###

Provide the reported IC50 of each item.
target-of-assay: serotonin 5-HT2A receptors (Rattus norvegicus)
Construct: from tissue; host or cells: rat brain tissues
Sequence (P14842 whole entry): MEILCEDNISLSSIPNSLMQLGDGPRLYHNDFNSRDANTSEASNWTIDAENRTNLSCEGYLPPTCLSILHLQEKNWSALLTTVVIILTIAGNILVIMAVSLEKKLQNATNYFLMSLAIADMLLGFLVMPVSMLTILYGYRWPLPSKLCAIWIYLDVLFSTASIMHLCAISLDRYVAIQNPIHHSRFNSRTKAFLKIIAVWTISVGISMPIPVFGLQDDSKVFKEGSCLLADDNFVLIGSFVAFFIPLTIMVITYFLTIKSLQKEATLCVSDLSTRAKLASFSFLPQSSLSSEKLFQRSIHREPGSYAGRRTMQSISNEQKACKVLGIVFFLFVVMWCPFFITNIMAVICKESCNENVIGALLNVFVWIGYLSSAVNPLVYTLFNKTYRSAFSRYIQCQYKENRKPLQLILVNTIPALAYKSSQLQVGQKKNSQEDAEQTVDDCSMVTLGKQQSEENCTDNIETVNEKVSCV
assay-comment: Radioligand binding assay, 5-HT2A receptors

Query: Consider the compound O=C(NC1CC2CCC(C1)N2Cc1ccncc1)c1ccc2ncccc2c1 (centres unmarked) [Compound 12v] . State its measured IC50.
Response: > 10 µM

Query: Provide IC50 value for the following compound: O=C(NC1CC2CCC(C1)N2Cc1ccncc1)c1cnc2ccccc2c1 (centres unmarked) [Compound 12u]
Response: 4.53 µM

Query: Please give the documented IC50 of O=C(NC1CC2CCC(C1)N2Cc1ccccn1)c1ccc2ncccc2c1 (centres unmarked) [Compound 12n]
Response: > 10 µM

Query: Write down IC50 measured for item O=C(NC1CC2CCC(C1)N2Cc1cccnc1)c1cnc2ccccc2c1 (centres unmarked) [Compound 12q]
Response: > 10 µM

Query: Using the record for O=C(NC1CC2CCC(C1)N2Cc1cccnc1)c1ccc2ncccc2c1 (centres unmarked) [Compound 12r] , state its measured IC50.
Response: > 10 µM

###

Give IC50 for every item shown.
target-of-assay: serotonin 5-HT1A receptors (Rattus norvegicus)
Construct: from tissue; host or cells: rat brain tissues
Sequence (P19327 1-422): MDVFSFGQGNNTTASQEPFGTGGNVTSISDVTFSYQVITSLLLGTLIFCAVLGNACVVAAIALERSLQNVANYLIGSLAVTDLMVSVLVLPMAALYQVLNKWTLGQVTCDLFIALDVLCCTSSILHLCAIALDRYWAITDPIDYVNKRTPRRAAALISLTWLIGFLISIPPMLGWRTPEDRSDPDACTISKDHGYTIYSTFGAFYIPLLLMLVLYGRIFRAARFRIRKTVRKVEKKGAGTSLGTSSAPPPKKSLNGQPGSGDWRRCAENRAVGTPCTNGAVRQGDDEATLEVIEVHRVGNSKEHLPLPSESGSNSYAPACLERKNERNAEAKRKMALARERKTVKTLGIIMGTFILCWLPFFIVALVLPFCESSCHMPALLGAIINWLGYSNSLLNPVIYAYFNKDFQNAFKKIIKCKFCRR
assay-comment: Radioligand binding assay, 5-HT1A receptors
details: rat brain tissues; read-out: 5-HT1A IC50 [nM] ± SEM
# number only, unit nM dropped from output

Query: For the molecule Cc1ccccc1CN1C2CCC1CC(NC(=O)c1ccc3ccccc3n1)C2 (centres unmarked) [Compound 12a] , report IC50.
Response: 140

Query: Name the recorded IC50 of the molecule listed here: O=C(NC1CC2CCC(C1)N2Cc1ccccn1)c1ccc2ccccc2n1 (centres unmarked) [Compound 12l]
Response: 665

Query: Using known records, supply IC50 for Cc1ccccc1CN1C2CCC1CC(NC(=O)c1cnc3ccccc3c1)C2 (centres unmarked) [Compound 12b]
Response: 244

Query: State its IC50 for this molecule: COc1cc(C(=O)NC2CC3CCC(C2)N3Cc2cccnc2)nc2ccccc12 (centres unmarked) [Compound 12s]
Response: 3750

Query: State, in one line, measured IC50 of O=C(NC1CC2CCC(C1)N2Cc1cccnc1)c1ccc2ccccc2n1 (centres unmarked) [Compound 12p]
Response: 3250
